target: KRasG12C (M1-K169, biotinylated on the N-terminus) (Homo sapiens (Human), UniProt P01116, G12C); assay: Covalent competition assay: scintillation proximity assay (SPA) quantifying covalent modification of KRASG12C; conditions: competition with radiolabeled covalent probe (Compound B/Compound A), 2 hours incubation, 10 nM KRasG12C
value.kind: IC50 (nM)
Answers are plain numbers, in nM.

Use these answered entries as a reference point.
# molecule, measurement.unit, measured.value
data = [
    ("C=CC(=O)N1CC2(CC(n3nc(N4CC[C@@H](CN5CC6(CCN(S(C)(=O)=O)C6)C5)CC4(C)C)c(-c4c(Cl)c(Cl)cc5[nH]ncc45)c3C)C2)C1 (single isomer, unassigned) [Example 297b]", "nM", 9),
    ("C=CC(=O)N1CC2(CC(n3nc(N4CCN(C5COC5)CC45CCC5)c(-c4c(C)c(O)cc(C)c4Cl)c3C)C2)C1 (single isomer, unassigned) [Example 49a]", "nM", 1790),
    ("C=CC(=O)N1CC2(CC(n3nc(N4CCN(C[C@@H]5COCCO5)C[C@]4(C)CC)c(-c4c(Cl)cnc5[nH]ncc45)c3C)C2)C1 (single isomer, unassigned) [Example 81b]", "nM", 585),
]

Count: 2. Required value per item: IC50.
1. C=CC(=O)N1CC2(CC(n3nc(N4CCN(C(C)=O)C5(CCC5)C4)c(-c4c(Cl)c(C)cc5[nH]ncc45)c3C)C2)C1 (single isomer, unassigned) [Example 20a]
2. C=CC(=O)N1CC2(CC(n3nc(N4C[C@H](C)N(C5COC5)CC4(C)C)c(-c4c(Cl)c(Cl)cc5[nH]ncc45)c3C)C2)C1 (single isomer, unassigned) [Example 104b]

-- reply
301
27

Each of the following entries comes with a recorded value; kindly state IC50 for each.
1. C=CC(=O)N1CC2(CC(n3nc(N4CCCCC4(C)C)c(-c4c(Cl)c(C)cc5[nH]ncc45)c3C)C2)C1 (single isomer, unassigned) [Example 103b]
2. C=CC(=O)N1CC2(CC(n3nc(N4CCN(C5COC5)CC45CCC5)c(-c4c(Cl)c(C)cc5[nH]nc(N)c45)c3C)C2)C1 (single isomer, unassigned) [Example 114a]
3. C=CC(=O)N1CC2(CC(n3nc(N4CCC(N5CCOCC5)CC45CCC5)c(-c4c(Cl)c(C)cc5[nH]ncc45)c3C)C2)C1 (single isomer, unassigned) [Example 63b]

-- reply
[315, 7, 3100]

----------
target: KRasG12C (M1-K169, biotinylated on the N-terminus) (Homo sapiens (Human), UniProt P01116, G12C); assay: Covalent competition assay: scintillation proximity assay (SPA) quantifying covalent modification of KRASG12C; settings: competition with radiolabeled covalent probe (Compound B/Compound A), 2 hours incubation, 10 nM KRasG12C
Kindly state IC50 for each of the entries shown.
Answers are plain numbers, in nM.

A selection of reference data follows.
# compound, IC50 / nM
data = [
    ("C=CC(=O)N1CC2(CC(n3nc(N4CCN(C(C)(C)CO)CC45CCC5)c(-c4c(Cl)c(C)cc5[nH]ncc45)c3C)C2)C1 (single isomer, unassigned) [Example 190a]", 4500),
    ("C=CC(=O)N1CC2(CC(n3nc(N4CCN(C[C@@H]5COCCO5)CC45CCC5)c(-c4c(Cl)c(Cl)cc5[nH]ncc45)c3C)C2)C1 (single isomer, unassigned) [Example 171b]", 8),
]

Please turn your attention to the following entry.
-- ask Look up and state reported IC50 for C=CC(=O)N1CC2(CC(n3nc(N4CCN(C(=O)N(C)C)CC4(C)C)c(-c4c(Cl)c(C)cc5[nH]ncc45)c3C)C2)C1 (single isomer, unassigned) [Example 129a]
-- reply 32

These entries and their values trace back to patent US20240317721A1.
